Test: Cytotoxicity against human HeLa cells expressing CD4-LTR by XTT assay
Assay type: cell-based
Details: read-out: TC50 (the source's name)
Overview of recorded CC50 for various compounds
quantityName: CC50 (µM)

1) Cc1cc(C)cc(Oc2c(C(C)C)c(=O)[nH]c(=O)n2CC2CCC2)c1    16.6
2) Cc1cc(C)cc(C(=O)c2c(C)c(=O)[nH]c(=O)n2CC2CC=CC2)c1    81.9
3) Cc1cc(C)cc(Oc2c(C(C)C)c(=O)[nH]c(=O)n2CCC2=CCCC2)c1    17.4
4) Cc1cc(C)cc(Oc2c(C(C)C)c(=O)[nH]c(=O)n2CC2CCCC2)c1    15.5
5) CCc1c(Oc2cc(C)cc(C)c2)n(CC2CCCC2)c(=O)[nH]c1=O    20.9

###

Test: Therapeutic index, ratio of TC50 for human CEM-SS cells to EC50 for HIV2 ROD infected in human CEM-SS cells
Format: cell-based
Conditions: CEM-SS cells, read-out: TI
Hi! Just check whether selectivity ratio is below 10. Below gives true, equal or above gives false.

1) Cc1cc(C)cc(Oc2c(C(C)C)c(=O)[nH]c(=O)n2CC2CC=CC2)c1    false
2) Cc1cc(C)cc(Oc2c(C(C)C)c(=O)[nH]c(=O)n2CC2CCC2)c1    false
3) Cc1cc(C)cc(C(=O)c2c(C(C)C)c(=O)[nH]c(=O)n2CCC2CC=CC2)c1    false
4) CCc1c(Sc2cc(C)cc(C)c2)n(CC2CCCCC2)c(=O)[nH]c1=O    true
5) Cc1cc(C)cc(C(=O)c2c(C(C)C)c(=O)[nH]c(=O)n2CCC2C=CCC2)c1 (stereo unspecified)    false
6) Cc1cc(C)cc(C(=O)c2cc(=O)[nH]c(=O)n2CC2CC=CC2)c1    true
7) CCc1c(C(=O)c2cc(C)cc(C)c2)n(CC2CCCC2)c(=O)[nH]c1=O    false
8) Cc1cc(C)cc(C(=O)c2c(C(C)C)c(=O)[nH]c(=O)n2CC2CC=CC2)c1    false
9) Cc1cc(C)cc(C(=O)c2c(C(C)C)c(=O)[nH]c(=O)n2CC2CCCC2)c1    false
10) Cc1cc(C)cc(Oc2c(C(C)C)c(=O)[nH]c(=O)n2CC2CCCC2)c1    true
11) Cc1cc(C)cc(Sc2c(C(C)C)c(=O)[nH]c(=O)n2CC2CC2)c1    false
12) Cc1cc(C)cc(Oc2c(C(C)C)c(=O)[nH]c(=O)n2CCC2CC=CC2)c1    true
13) CCc1c(C(=O)c2cc(C)cc(C)c2)n(CC2CCCCC2)c(=O)[nH]c1=O    false
14) CCc1c(Oc2cc(C)cc(C)c2)n(CC2CCCCC2)c(=O)[nH]c1=O    false
15) Cc1cc(C)cc(C(=O)c2c(C(C)C)c(=O)[nH]c(=O)n2CC2CCCCC2)c1    false
16) CCc1c(C(=O)c2cc(C)cc(C)c2)n(CCC2CC=CC2)c(=O)[nH]c1=O    true
17) Cc1cc(C)cc(Oc2c(C(C)C)c(=O)[nH]c(=O)n2Cc2ccccc2)c1    false
18) Cc1cc(C)cc(Sc2c(C(C)C)c(=O)[nH]c(=O)n2CCC2C=CCC2)c1 (stereo unspecified)    true
19) CCc1c(Oc2cc(C)cc(C)c2)n(CC2CC2)c(=O)[nH]c1=O    false
20) Cc1cc(C)cc(Sc2c(C(C)C)c(=O)[nH]c(=O)n2CCC2CC=CC2)c1    true
21) CCc1c(C(=O)c2cc(C)cc(C)c2)n(CCC2C=CCC2)c(=O)[nH]c1=O (stereo unspecified)    false
22) CCc1c(C(=O)c2ccccc2)n(CC2CC=CC2)c(=O)[nH]c1=O    true
23) CC(C)c1c(Oc2ccccc2)n(CC2CC=CC2)c(=O)[nH]c1=O    false
24) CCc1c(Sc2cc(C)cc(C)c2)n(CCC2CCCC2)c(=O)[nH]c1=O    true
25) CCc1c(Oc2cc(C)cc(C)c2)n(Cc2ccccc2)c(=O)[nH]c1=O    false
26) CCc1c(Sc2cc(C)cc(C)c2)n(CC2=CCCC2)c(=O)[nH]c1=O    false
27) CCc1c(Sc2cc(C)cc(C)c2)n(CC2CCCC2)c(=O)[nH]c1=O    false
28) Cc1cc(C)cc(C(=O)c2c(C(C)C)c(=O)[nH]c(=O)n2Cc2ccccc2)c1    false
29) CCc1c(Sc2cc(C)cc(C)c2)n(CC2CC=CC2)c(=O)[nH]c1=O    false
30) Cc1cc(C)cc(Oc2c(C(C)C)c(=O)[nH]c(=O)n2CC2CCCCC2)c1    true
31) Cc1cc(C)cc(Oc2c(C(C)C)c(=O)[nH]c(=O)n2CCC2C=CCC2)c1 (stereo unspecified)    false
32) CCc1c(Oc2cc(C)cc(C)c2)n(CC2=CCCC2)c(=O)[nH]c1=O    false
33) CC(C)c1c(C(=O)c2ccccc2)n(CC2CC=CC2)c(=O)[nH]c1=O    false
34) CCc1c(Oc2cc(C)cc(C)c2)n(CCC2=CCCC2)c(=O)[nH]c1=O    false
35) CCc1c(Oc2cc(C)cc(C)c2)n(CC2CCC2)c(=O)[nH]c1=O    false
36) CCc1c(Sc2cc(C)cc(C)c2)n(CCC2=CCCC2)c(=O)[nH]c1=O    true
37) CCc1c(Sc2cc(C)cc(C)c2)n(CC2CC2)c(=O)[nH]c1=O    false
38) CCc1c(C(=O)c2cc(C)cc(C)c2)n(Cc2ccccc2)c(=O)[nH]c1=O    false
